Entries and their pIC50 values follow.
# TESTED_TARGET: Mycobacterial beta-ketoacyl-[acyl-carrier-protein] synthase III (Mycobacterium tuberculosis)
# Sequence (P9WNG3 whole entry): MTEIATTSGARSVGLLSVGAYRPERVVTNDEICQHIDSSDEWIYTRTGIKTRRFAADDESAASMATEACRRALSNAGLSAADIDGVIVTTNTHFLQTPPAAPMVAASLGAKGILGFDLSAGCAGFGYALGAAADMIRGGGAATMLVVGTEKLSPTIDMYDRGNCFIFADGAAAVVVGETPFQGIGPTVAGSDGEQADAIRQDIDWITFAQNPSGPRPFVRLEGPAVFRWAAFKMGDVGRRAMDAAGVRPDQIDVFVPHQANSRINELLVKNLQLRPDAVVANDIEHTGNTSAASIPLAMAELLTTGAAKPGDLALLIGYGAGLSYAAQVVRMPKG
Quick note: pIC50 means taking -log10 of the concentration in moles per liter.

Use these answered entries as a reference point.
Cc1ccc(S(=O)(=O)c2cc(O)c3cc4ccccc4cc3c2O)cc1 :: 8.07
O=C(O)CCS(=O)(=O)c1cc(O)c2ccccc2c1O :: 8.45
CS(=O)(=O)c1cc(O)c2ccccc2c1O :: 8.45
Cc1ccc(SC2=CC(=O)c3ccccc3C2=O)cc1 :: 6.95
CC(=O)Nc1ccc(S(=O)(=O)c2cc(O)ccc2O)cc1 :: 7.50

--- query ---
Inquiry: // returns reported pIC50 for input Cc1ccc(S(=O)(=O)c2cc(O)c3ccccc3c2O)cc1
Reply text: 9.21

----------
Entries and their IC50 values follow.
# TESTED_TARGET: Beta-ketoacyl-ACP-synthase III (Plasmodium falciparum)
# Sequence (O77078 whole entry): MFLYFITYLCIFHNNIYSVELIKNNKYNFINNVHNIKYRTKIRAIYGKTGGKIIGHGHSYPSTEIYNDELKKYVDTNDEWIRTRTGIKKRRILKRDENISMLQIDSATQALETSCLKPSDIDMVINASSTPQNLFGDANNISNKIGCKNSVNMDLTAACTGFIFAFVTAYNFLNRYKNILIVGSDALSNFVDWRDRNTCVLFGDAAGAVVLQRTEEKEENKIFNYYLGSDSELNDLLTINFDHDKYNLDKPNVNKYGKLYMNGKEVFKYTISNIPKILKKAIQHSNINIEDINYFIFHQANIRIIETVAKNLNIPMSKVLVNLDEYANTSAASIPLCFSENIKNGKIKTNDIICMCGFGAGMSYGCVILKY
# ASSAY_REMARKS: Inhibition of Plasmodium falciparum FabH

Use these answered entries as a reference point.
O=S(=O)(c1ccccc1)c1cc(O)c2ccccc2c1O :: 279 nM
O=C(O)CCS(=O)(=O)c1cc(O)c2ccccc2c1O :: 46.5 nM
O=S(=O)(c1ccc(Cl)cc1)c1cc(O)c2ccccc2c1O :: 129 nM
Cc1ccc(S(=O)(=O)C2=CC(=O)c3ccccc3C2=O)cc1 :: 1420 nM
Cc1ccc(S(=O)(=O)c2cc(O)c3cc4ccccc4cc3c2O)cc1 :: 341 nM

Inquiry: // returns reported IC50 for input O=S(=O)(c1ccc2ccccc2c1)c1cc(O)c2ccccc2c1O
Reply text: 393 nM

Inquiry: // returns reported IC50 for input Cc1ccc(S(=O)(=O)c2cc(O)c3ccccc3c2O)cc1
Reply text: 73.6 nM

Inquiry: // returns reported IC50 for input CCCc1ccc(S(=O)(=O)c2cc(O)c3ccccc3c2O)cc1
Reply text: 72.6 nM

Inquiry: // returns reported IC50 for input CS(=O)(=O)c1cc(O)c2ccccc2c1O
Reply text: 27.4 nM

Inquiry: // returns reported IC50 for input CC(=O)Nc1ccc(S(=O)(=O)c2cc(O)c3ccccc3c2O)cc1
Reply text: 29.6 nM

----------
Entries and their MIC99 values follow.
# System: Escherichia coli
# ASSAY_REMARKS: Antibacterial activity against Escherichia coli tolC mutant
# Assay type: functional
Reply with just the number (in µg/mL).

Inquiry: // returns reported MIC99 for input CS(=O)(=O)c1cc(O)c2ccccc2c1O
Reply text: 9.7

Inquiry: // returns reported MIC99 for input CC(=O)Nc1ccc(S(=O)(=O)c2cc(O)c3ccccc3c2O)cc1
Reply text: 12.3

Inquiry: // returns reported MIC99 for input Cc1ccc(S(=O)(=O)c2cc(O)c3ccccc3c2O)cc1
Reply text: 14.1

----------
# System: Plasmodium falciparum
# ASSAY_REMARKS: Antiplasmodial activity against chloroquine-sensitive Plasmodium falciparum D6
# Assay type: functional, organism-based
Entries and their IC50 values follow.
Reply with just the number (in µg/mL).

Cc1ccc(S(=O)(=O)c2cc(O)c3ccccc3c2O)cc1 :: 7.69
CC(=O)Nc1ccc(S(=O)(=O)c2cc(O)ccc2O)cc1 :: 3.96
Cc1ccc(S(=O)(=O)c2cc(O)ccc2O)cc1 :: 31.3
Cc1ccc(S(=O)(=O)c2ccc3ccccc3c2)cc1 :: 8.74
O=S(=O)(c1ccc(Cl)cc1)c1cc(O)c2ccccc2c1O :: 3.23

--- query ---
Inquiry: // returns reported IC50 for input CC(=O)Nc1ccc(S(=O)(=O)c2cc(O)c3ccccc3c2O)cc1
Reply text: 4.98

----------
# TESTED_TARGET: Mycobacterial beta-ketoacyl-[acyl-carrier-protein] synthase III (Mycobacterium tuberculosis, UniProt P9WNG3)
MEASURE_NAME: IC50 (nM)
Reply with just the number (in nM).

Inquiry: // returns reported IC50 for input Cc1ccc(S(=O)(=O)c2ccc3ccccc3c2)cc1
Reply text: 138

Inquiry: // returns reported IC50 for input O=S(=O)(c1ccc(Cl)cc1)c1cc(O)c2ccccc2c1O
Reply text: 3.61

Inquiry: // returns reported IC50 for input O=S(=O)(c1ccccc1)c1cc(O)c2ccccc2c1O
Reply text: 2.84

Inquiry: // returns reported IC50 for input CC(=O)Nc1ccc(S(=O)(=O)c2cc(O)c3ccccc3c2O)cc1
Reply text: 3.76

Inquiry: // returns reported IC50 for input CCCc1ccc(S(=O)(=O)c2cc(O)c3ccccc3c2O)cc1
Reply text: 3.09

Inquiry: // returns reported IC50 for input Cc1ccc(S(=O)(=O)c2cc(O)ccc2O)cc1
Reply text: 34.4

Inquiry: // returns reported IC50 for input Cc1ccc(S(=O)(=O)C2=CC(=O)c3ccccc3C2=O)cc1
Reply text: 1.99

Inquiry: // returns reported IC50 for input O=S(=O)(c1ccc2ccccc2c1)c1cc(O)c2ccccc2c1O
Reply text: 1.49

----------
# Tested on: Escherichia coli
# ASSAY_REMARKS: Antibacterial activity against Escherichia coli tolC mutant
# Format: functional
MEASURE_NAME: MIC99

Use these answered entries as a reference point.
CC(=O)Nc1ccc(S(=O)(=O)c2cc(O)ccc2O)cc1 :: > 90 µg/mL
Cc1ccc(S(=O)(=O)c2cc(O)ccc2O)cc1 :: > 90 µg/mL

Inquiry: // returns reported MIC99 for input Cc1ccc(S(=O)(=O)c2ccc3ccccc3c2)cc1
Reply text: > 90 µg/mL
